- assay_method_text: LNP encapsulation efficiency (Quant-it Ribogreen)
- Assay type: physicochemical
- run_parameters: mRNA LNP, cationic lipid/DSPC/cholesterol/PEG-lipid 50:10:38.5:1.5
property_measured: Encapsulation efficiency (%)

{"columns": ["compound", "property_measured", "data_value"],
 "data": [
  ["CCCCCCCC(C(=O)NCCCCCCCCCC(=O)OC(CCCCCC)CCCCCC)N(CCN(CCO)C1CCCCC1)C(=O)CCCCCCCCCC(=O)OC(CCCCCC)CCCCCC (stereo not shown) [Compound B15]", "Encapsulation efficiency (%)", 95.93],
  ["CCCCCCCCC(C(=O)NCCCCCCCCCC(=O)OCC1CC=CCC1)N(CCCN1CCCC1)C(=O)CCCCCCCCCC(=O)OC(CCCCCC)CCCCCC (stereo not shown) [Compound A10]", "Encapsulation efficiency (%)", 54.08],
  ["CCCCCCCC(C(=O)NCCCCCCCCCC(=O)OC(CCCCCC)CCCCCC)N(CCCN(CCO)CCO)C(=O)CCCCCCCCCC(=O)OC(CCCCCC)CCCCCC (stereo not shown) [Compound B2]", "Encapsulation efficiency (%)", 85.90],
  ["CCCCCCCC(C(=O)NCCCCCCCCCC(=O)OC(CCCCCC)CCCCCC)N(CCCN(C)C)C(=O)CCCCCCCCCC(=O)OC(CCCCCC)CCCCCC (stereo not shown) [Compound A12]", "Encapsulation efficiency (%)", 24.84]
]}

###

- assay_method_text: LNP size and PDI by dynamic light scattering
- Type: physicochemical
- run_parameters: mRNA LNP, cationic lipid/DSPC/cholesterol/PEG-lipid 50:10:38.5:1.5
- Protocol: In summary, the cationic lipid described herein, DSPC, cholesterol, and PEG-lipid were dissolved in ethanol at a molar ratio of 50:10:38.5:1.5 and diluted in 10 mM to 50 mM citrate buffer at pH 4 with mRNA. […] The size of lipid nanoparticles was measured by dynamic light scattering using a Malvern Zetasizer Nano ZS (Malvern, UK) with a 90° scattering detection mode. […]
property_measured: PDI

{"columns": ["compound", "data_value"],
 "data": [
  ["CCCCCCCC(C(=O)NCCCCCCCCCC(=O)OC(CCCCCC)CCCCCC)N(CCCN(CCO)CCO)C(=O)CCCCCCCCCC(=O)OCC12CC3CC(CC(C3)C1)C2 (centres unmarked)", 0.159],
  ["CCCCCCCC(C(=O)NCCCCCCCCCC(=O)OC(CCCCCC)CCCCCC)N(CCCN(CCO)CCO)C(=O)CCCCCCCCCC(=O)OC(CCCCCC)CCCCCC (centres unmarked)", 0.15],
  ["CCCCCCCC(C(=O)NCCCCCCCCCC(=O)OC(CCCCCC)CCCCCC)N(CCCN1CCN(CCO)CC1)C(=O)CCCCCCCCCC(=O)OC(CCCCCC)CCCCCC (centres unmarked)", 0.185],
  ["CCCCCCC(CCCCCC)OC(=O)CCCCCCCCCNC(=O)C(CCCCCCCCCC(=O)OC(CCCCCC)CCCCCC)N(CCN1CCN(CCO)CC1)C(=O)CCN1CCN(CCO)CC1 (centres unmarked)", 0.185],
  ["CCCCCCCC(C(=O)NCCCCCCCCCC(=O)OC(CCCCCC)CCCCCC)N(CCCNc1c(NC)c(=O)c1=O)C(=O)CCCCCCCCCC(=O)OC(CCCCCC)CCCCCC (centres unmarked)", 0.165]
]}
